The reported measurements were obtained from ChEMBL document CHEMBL4373746.

assay_comment: Unbound tissue partition coefficient, ratio of drug level in liver to plasma in Wistar Han rat at 1 to 2 mg/kg, iv infused for 10 to 20 hrs by LC-MS/MS analysis
assay_setup: liver/plasma
assay_metric: Kp uu

Here's what some known entries look like.
CC1(OC(=O)N2CCC(n3ncc(COc4ccc(C(N)=O)cc4F)c3C#N)CC2)CC1; 4.7
CN(C)C[C@@H](OC(=O)N1Cc2c(NC(=O)C3(C(F)(F)F)CC3)n[nH]c2C1(C)C)c1ccccc1; 3.3

P. NC(=O)c1c(-c2ccc(Oc3ccc(Cl)cc3)cc2)nn([C@@H]2CCCN(C(=O)/C=C/CO)C2)c1N
Q. CO[C@@H]1C[C@H](C(=O)Nc2ccc(-n3cc(Cl)ccc3=O)cc2F)N(C(=O)Nc2ccc(Cl)cc2)C1
Between P and Q , whose recorded Kp uu is greater? Answer by stating the label of the chosen item.
Q

* * *

assay_comment: Fraction unbound in Wistar Han rat liver at 2 uM incubated for 6 hrs by equilibrium dialysis method
assay_metric: fraction unbound at 6 h, 2 µM

O=C(NC1CCCC1)C1CCN(c2nc3cc(Cl)ccc3o2)CC1; 0.0414

P. CO[C@@H]1C[C@H](C(=O)Nc2ccc(-n3cc(Cl)ccc3=O)cc2F)N(C(=O)Nc2ccc(Cl)cc2)C1
Q. Cn1cnc(-c2ccc(O[C@H]3CCN(C(=O)Cc4ccc(OC(F)(F)F)cc4)C[C@@H]3F)c(C(N)=O)c2)c1
# min-compare on fraction unbound at 6 h, 2 µM between P and Q Which one? Tell me its label.
Q
(Q: 0.0393, P: 0.0949)

1. CN1CC[C@H](c2c(O)cc(O)c3c(=O)cc(-c4ccccc4Cl)oc23)[C@H](O)C1
2. COCCCN1C[C@H](C)N(C(=O)N2Cc3c(NC(=O)c4ccccn4)n[nH]c3C2(C)C)C[C@H]1C
3. NC(=O)c1c(-c2ccc(Oc3ccc(Cl)cc3)cc2)nn([C@@H]2CCCN(C(=O)/C=C/CO)C2)c1N
Put the items in order so that reported fraction unbound at 6 h, 2 µM rises from first to last. Show the ranking through the labels, in the order asked for.
3, 1, 2

* * *

assay_comment: Unbound tissue partition coefficient, ratio of drug level in liver to plasma in Wistar Han rat at 1 to 2 mg/kg, iv infused for 10 to 20 hrs by LC-MS/MS analysis
assay_setup: liver/plasma
assay_metric: Kp uu

O=C(NC(c1ccccc1)c1ccccc1)C1CC1; 5.4

P. O=C(NC1CCCC1)C1CCN(c2nc3cc(Cl)ccc3o2)CC1
Q. CC(C)(CC1Cc2ccccc2C1)NC[C@@H](O)COc1cc(C2CC3CC2C2C(C(=O)O)C32)ccc1C#N (stereo not given in full)
R. CC(C)n1ncc2c1C(=O)CC1(CCN(C(=O)c3ccc4[nH]nc(C(N)=O)c4c3)CC1)C2
S. CN(C)C(=O)c1cc(CC(=O)O)ccc1NC(=O)c1ccccc1-c1ccc(C(F)(F)F)cc1
Hey, quick one: sort these by Kp uu, largest value first please. Output the labels ranked as instructed.
S, R, P, Q

* * *

assay_comment: Unbound tissue partition coefficient, ratio of drug level in adipose to plasma in Wistar Han rat at 1 to 2 mg/kg, iv infused for 10 to 20 hrs by LC-MS/MS analysis
assay_setup: adipose/plasma
assay_metric: Kp uu

Below: 5 compounds and their reported Kp uu.
COc1cc(/C=C2\CCCN([C@@H](C)c3ccc(F)cc3)C2=O)ccc1-n1cnc(C)c1; 2.3
CN(C)C(=O)c1cc(CC(=O)O)ccc1NC(=O)c1ccccc1-c1ccc(C(F)(F)F)cc1; 0.1
CS(=O)(=O)c1cccc(C(=O)O)c1; 0.024
Oc1noc2cc(Cl)c(Cl)cc12; 9.7
CO[C@@H]1C[C@H](C(=O)Nc2ccc(-n3cc(Cl)ccc3=O)cc2F)N(C(=O)Nc2ccc(Cl)cc2)C1; 7.9

P. Cc1nc([C@@H]2CCOC2)c2c(N3CCc4c(c(C5CC5)nn4C)C3)ncnn12
Q. CCCC(Oc1ccc(-n2cc3ccccc3n2)cc1)c1ccc(C(=O)NCCC(=O)O)cc1 (stereo not given)
R. COc1ccc(-c2cc3c(C(=O)O)n[nH]c3cc2Cl)cc1
S. COCCCN1C[C@H](C)N(C(=O)N2Cc3c(NC(=O)c4ccccn4)n[nH]c3C2(C)C)C[C@H]1C
T. Cn1ncc(-c2ccc(C(=O)N(c3ncccc3Cl)[C@@H]3CCCNC3)cc2)c1C(=O)O
Let's sort these by Kp uu, smallest first. Go ahead? Order the labels as requested and give them as your answer.
Q, T, S, R, P

A. CN1CC[C@H](c2c(O)cc(O)c3c(=O)cc(-c4ccccc4Cl)oc23)[C@H](O)C1
B. Cn1nc(C(=O)NCCN2CCOCC2)cc1-c1cc2ccccc2[nH]1
Hi, I'm comparing A with B and wondering which one has the bigger number for Kp uu. Any idea? API: response body contains the label of the selected item.
A

a. O=c1[nH]c(=S)n(CCO)c2cc[nH]c12
b. O=C(O)c1c[nH]c2cc(Cl)c(-c3ccc(CC(=O)N4CCOCC4)cc3)cc12
c. Cc1c(C(=O)O)cnn1-c1nc(-c2cccc(C(F)(F)F)c2)cs1
d. COc1cc2c(OC[C@H]3NC(=O)[C@@H]4C[C@]34C)nccc2cc1C(N)=O
Sort (4 compounds) by Kp uu: min first. Your reply should list the labels following the order given in the request.
a, d, c, b
(a: 0.027, d: 0.38, c: 0.86, b: 1.6)

P. CN(C)C[C@@H](OC(=O)N1Cc2c(NC(=O)C3(C(F)(F)F)CC3)n[nH]c2C1(C)C)c1ccccc1
Q. O=C(O)[C@@H]1CCN(C(=O)n2cnc(-c3ccc(-c4cnc(N5CCOCC5)nc4)cc3)n2)[C@@H](c2ccccc2)C1
R. Cc1nc2cc(-c3cc(F)cc(C#N)c3)ccc2s1
S. O=C(NC1CC1)c1nc2cccnn2c1-c1ccc2ncnn2c1
I would appreciate it if you could sort these 4 compounds by Kp uu, starting from the smallest number. # list labels per requested ordering
Q, S, P, R
(Q: 0.024, S: 0.95, P: 1.6, R: 2.6)
